target-under-test: Rap guanine nucleotide exchange factor 3 (Homo sapiens) (UniProt O95398)
assay: Counterscreen qHTS for agonist of cAMP-regulated guanine nucleotide exchange factor 3 (EPAC1) (AID 1645889); note: % of control where 0% means no effect; nearly all actives have a fitted effect of over 40% in size
condition-context: EPAC1 Rap1B-BODIPY-GDP exchange, fluorescence; series mostly up to 154 µM
Records with an inconclusive call do not appear. Activity calls are given as the source filed them. Calls come from the whole dose curve; as a rule, active = well fitted activation curve with a large enough effect; inconclusive = small, poorly fitted or top-dose-only effect, or another doubt; inactive = no such curve, though single readings can be large or run the other way.
value-kind: activation

* Cc1nnc(N/N=C\c2ccc(-c3ccccc3[N+](=O)[O-])o2)n1N | 36.2% [at 30.8 µM] (inactive)

For the molecule `O=C(CCC(=O)N1CCSc2ccccc21)NCc1cccc(Cl)c1` , the measured activation on Rap guanine nucleotide exchange factor 3 (Homo sapiens) (UniProt O95398) was 22.1% [at 30.8 µM] (inactive)

For the molecule `COc1ccc(NC(=O)Cn2cnc3sc(C)c(S(=O)(=O)N4CCOCC4)c3c2=O)c(OC)c1` , the measured activation on Rap guanine nucleotide exchange factor 3 (Homo sapiens) (UniProt O95398) was 3.18% [at 30.8 µM] (inactive)

Data credit: PubChem BioAssay (NCATS)
